# protocol text: Reactive carbonyl species trapping activity of compound assessed as MDA adduct formation at 10 mM preincubated for 24 hrs with MDA measured after 0.5 hrs by LCMS analysis
# Assay type: physicochemical
# measurement conditions: 10000 µM
quantity kind: Activity (%)

compound: Cl.Cl.NCC(N)C(=O)N1CCNCC1 (stereo not given)
unit annotation: %
Activity: 100

compound: Cl.Cl.NCC(N)CCC(=O)NCCCn1cccc(O)c1=O (stereo not given)
unit annotation: %
Activity: 75

compound: Cc1c(O)c(=O)ccn1CCCNC(=O)CCC(N)CN.Cl.Cl (stereo not given)
unit annotation: %
Activity: 82

[I] COc1cc(/C=C/C(=O)NCCCCC(N)CN)ccc1O.Cl.Cl (stereo not given)
[II] Cl.Cl.NCC(N)CCC(=O)N1CCN(C(=O)CCn2cccc(O)c2=O)CC1 (stereo not given)
Form: Entry with minimum Activity (choose one): I / II Identify your pick by its label.
I

----------
# protocol text: Reactive carbonyl species trapping activity of compound assessed as MDA adduct formation at 10 mM preincubated for 24 hrs with MDA measured after 0.5 hrs by LCMS analysis
# Format: physicochemical
# measurement conditions: 10000 µM
quantity kind: Activity (%)

Below: 3 compounds and their reported Activity.
compound: CCCCN1CCN(C(=O)C(N)CN)CC1.Cl.Cl (stereo unspecified)
quantity kind: Activity
endpoint result: 65
--
compound: Cl.Cl.NCC(N)CCCCNC(=O)c1cc(O)c(O)c(O)c1 (stereo unspecified)
quantity kind: Activity
endpoint result: 80
--
compound: Cc1c(O)c(=O)ccn1CCC(=O)NCCCCC(N)CN.Cl.Cl (stereo unspecified)
quantity kind: Activity
endpoint result: 88

[1] NCCC(=O)N[C@@H](Cc1cnc[nH]1)C(=O)O [CARNOSINE]
[2] Cl.Cl.NCC(N)CCC(=O)N1CCN(C(=O)c2cc(O)c(O)c(O)c2)CC1 (stereo unspecified)
[3] Cl.Cl.NCC(N)CCCNC(=O)CCn1cccc(O)c1=O (stereo unspecified)
Place the items in sequence of falling Activity. To answer, arrange all of the labels according to the requested order.
2, 1, 3

----------
# protocol text: Reactive carbonyl species trapping activity of compound assessed as MGO adduct formation at 10 mM preincubated for 24 hrs with MGO measured after 0.5 hrs by LCMS analysis
# Type: physicochemical
# measurement conditions: 10000 µM
quantity kind: Activity (%)

Use the examples below as a reference point.
molecule: Cc1c(O)c(=O)ccn1CCC(=O)NCCCCC(N)CN.Cl.Cl (stereo unspecified)
quantity kind: Activity
endpoint result: 99

molecule: COc1cc(/C=C/C(=O)NCCCCC(N)CN)ccc1O.Cl.Cl (stereo unspecified)
quantity kind: Activity
endpoint result: 100

molecule: Cl.Cl.NCC(N)CCC(=O)N1CCN(C(=O)CCn2cccc(O)c2=O)CC1 (stereo unspecified)
quantity kind: Activity
endpoint result: 97

molecule: Cl.Cl.NCC(N)CCC(=O)NCCCn1cccc(O)c1=O (stereo unspecified)
quantity kind: Activity
endpoint result: 98

molecule: Cl.Cl.NCC(N)CCCNC(=O)CCn1cccc(O)c1=O (stereo unspecified)
quantity kind: Activity
endpoint result: 100

[1] Cl.Cl.NCC(N)C(=O)N1CCNCC1 (stereo unspecified)
[2] Cc1c(O)c(=O)ccn1CCCNC(=O)CCC(N)CN.Cl.Cl (stereo unspecified)
Lab notebook, comparison: 1 versus 2 , higher Activity goes to which? Selection: enter the item's label.
2
(2: 98%, 1: 33%)

[A] Cl.Cl.NCC(N)CCC(=O)N1CCN(C(=O)c2cc(O)c(O)c(O)c2)CC1 (stereo unspecified)
[B] NCCC(=O)N[C@@H](Cc1cnc[nH]1)C(=O)O [CARNOSINE]
Which record shows the lower Activity: the first, A , or the second, B ? Indicate your choice by writing its label.
B

----------
# protocol text: Reactive carbonyl species trapping activity of compound assessed as MGO adduct formation at 10 mM preincubated for 24 hrs with MGO measured after 15 mins by LCMS analysis
# Assay type: physicochemical
# measurement conditions: 0.25 h, 10000 µM
quantity kind: Activity (%)

compound: Cl.Cl.NCC(N)CCCCNC(=O)CCn1cccc(O)c1=O (configuration not stated)
unit annotation: %
Activity: 98

compound: Cl.Cl.NCC(N)CCC(=O)NCCCn1cccc(O)c1=O (configuration not stated)
unit annotation: %
Activity: 97

compound: Cc1c(O)c(=O)ccn1CCCNC(=O)CCC(N)CN.Cl.Cl (configuration not stated)
unit annotation: %
Activity: 95

compound: Cl.Cl.NCC(N)CCCCNC(=O)c1cc(O)c(O)c(O)c1 (configuration not stated)
unit annotation: %
Activity: 90

[A] CCCCN1CCN(C(=O)C(N)CN)CC1.Cl.Cl (configuration not stated)
[B] Cc1c(O)c(=O)ccn1CCC(=O)NCCCCC(N)CN.Cl.Cl (configuration not stated)
Return label of the item with the larger Activity. Candidates: A , B . Write down the label of the entry you select.
B

[a] Cl.Cl.NCC(N)CCC(=O)N1CCN(C(=O)c2cc(O)c(O)c(O)c2)CC1 (configuration not stated)
[b] NCCC(=O)N[C@@H](Cc1cnc[nH]1)C(=O)O
Parameter check: reported Activity is higher for which label, a or b ? Your answer should be the label attached to the chosen record.
a

----------
# protocol text: Reactive carbonyl species trapping activity of compound assessed as MGO adduct formation at 10 mM preincubated for 24 hrs with MGO measured after 5 hrs by LCMS analysis
# Format: physicochemical
# measurement conditions: 10000 µM
quantity kind: Activity (%)

Here is how some compounds turned out for Activity.
compound: Cl.Cl.NCC(N)CCC(=O)N1CCN(C(=O)c2cc(O)c(O)c(O)c2)CC1 (configuration not stated)
unit annotation: %
Activity: 88
//
compound: NCCC(=O)N[C@@H](Cc1cnc[nH]1)C(=O)O
unit annotation: %
Activity: 58
//
compound: Cl.Cl.NCC(N)CCC(=O)NCCCn1cccc(O)c1=O (configuration not stated)
unit annotation: %
Activity: 100
//
compound: Cl.Cl.NCC(N)CCC(=O)N1CCN(C(=O)CCn2cccc(O)c2=O)CC1 (configuration not stated)
unit annotation: %
Activity: 99
//
compound: Cl.Cl.NCC(N)CCCCNC(=O)CCn1cccc(O)c1=O (configuration not stated)
unit annotation: %
Activity: 99

[1] Cl.Cl.NCC(N)CCCCNC(=O)c1cc(O)c(O)c(O)c1 (configuration not stated)
[2] Cl.Cl.NCC(N)C(=O)N1CCNCC1 (configuration not stated)
Please choose the item with the lower Activity value from this pair: 1 and 2 Respond with the label that goes with your answer.
2
(2: 51%, 1: 89%)

----------
# protocol text: Metal chelating activity of compound assessed as compound-Cu2+ complex formation at 0.1 mM after 10 mins in presence of CuSO4.5H2O by complexometric indicator murexide based UV-Vis spectrophotometric analysis
# Format: physicochemical
# measurement conditions: 100 µM
quantity kind: Activity (%)

Example entries begin here.
compound: Cl.Cl.NCC(N)C(=O)N1CCNCC1 (stereo unspecified)
Activity [%]: 13.97
//
compound: Cl.Cl.NCC(N)CCCCNC(=O)c1cc(O)c(O)c(O)c1 (stereo unspecified)
Activity [%]: 61.98
//
compound: Cl.Cl.NCC(N)CC(=O)N1CCN(C(=O)CCn2cccc(O)c2=O)CC1 (stereo unspecified)
Activity [%]: 30.74
//
compound: COc1cc(/C=C/C(=O)NCCCCC(N)CN)ccc1O.Cl.Cl (stereo unspecified)
Activity [%]: 15.88

[1] NCCC(=O)N[C@@H](Cc1cnc[nH]1)C(=O)O
[2] Cc1c(O)c(=O)ccn1CCCNC(=O)CCC(N)CN.Cl.Cl (stereo unspecified)
Which item exceeds the other in Activity, 1 or 2 ? Indicate your choice by writing its label.
2

----------
# protocol text: Metal chelating activity of compound assessed as compound-Cu2+ complex formation at 1 mM after 10 mins in presence of CuSO4.5H2O by complexometric indicator murexide based UV-Vis spectrophotometric analysis
# Assay type: physicochemical
# measurement conditions: 1000 µM
quantity kind: Activity (%)

Guide cases for Activity, answers given:
molecule: Cl.Cl.NCC(N)CCCCNC(=O)c1cc(O)c(O)c(O)c1 (stereo unspecified)
unit annotation: %
endpoint result: 93.82

molecule: COc1cc(/C=C/C(=O)N2CCN(C(=O)CCC(N)CN)CC2)ccc1O.Cl.Cl (stereo unspecified)
unit annotation: %
endpoint result: 71.51

molecule: Cl.Cl.NCC(N)CCCCNC(=O)CCn1cccc(O)c1=O (stereo unspecified)
unit annotation: %
endpoint result: 85.56

molecule: Cl.Cl.NCC(N)CCC(=O)N1CCN(C(=O)c2cc(O)c(O)c(O)c2)CC1 (stereo unspecified)
unit annotation: %
endpoint result: 78.48

[a] Cl.Cl.NCC(N)CCCCNC(=O)CCn1cccc(OCc2ccccc2)c1=O (stereo unspecified)
[b] Cc1c(O)c(=O)ccn1CCCNC(=O)CCC(N)CN.Cl.Cl (stereo unspecified)
Kindly identify which of a and b has the larger recorded Activity value. Reply with the label of the item you choose.
b

----------
# protocol text: Metal chelating activity of compound assessed as compound-Cu2+ complex formation at 0.08 mM after 10 mins in presence of CuSO4.5H2O by complexometric indicator murexide based UV-Vis spectrophotometric analysis
# Format: physicochemical
# measurement conditions: 80 µM
quantity kind: Activity (%)

compound: Cc1c(O)c(=O)ccn1CCC(=O)NCCCCC(N)CN.Cl.Cl (stereo unspecified)
unit annotation: %
endpoint result: 48.35

compound: Cl.Cl.NCC(N)CCCCNC(=O)c1cc(O)c(O)c(O)c1 (stereo unspecified)
unit annotation: %
endpoint result: 50.28

compound: NCCC(=O)N[C@@H](Cc1cnc[nH]1)C(=O)O
unit annotation: %
endpoint result: 0.38

compound: COc1cc(/C=C/C(=O)NCCCCC(N)CN)ccc1O.Cl.Cl (stereo unspecified)
unit annotation: %
endpoint result: 12.17

compound: Cl.Cl.NCC(N)CCCNC(=O)CCn1cccc(O)c1=O (stereo unspecified)
unit annotation: %
endpoint result: 35.49

[I] Cl.Cl.NCC(N)CC(=O)N1CCN(C(=O)CCn2cccc(O)c2=O)CC1 (stereo unspecified)
[II] CCCCN1CCN(C(=O)C(N)CN)CC1.Cl.Cl (stereo unspecified)
Just curious, which one has the larger Activity reading, I or II ? In your reply, give the label of the chosen option.
I
(I: 27.53%, II: 14.87%)

[1] Cl.Cl.NCC(N)CCC(=O)N1CCN(C(=O)CCn2cccc(O)c2=O)CC1 (stereo unspecified)
[2] NCCN
Which entry has a larger number for Activity, 1 or 2 ? Record your answer as the label of the chosen record.
2

This collection of values is drawn from ChEMBL document CHEMBL3865830.
